- test-protocol: Caco2 permeability test
- Type: in vitro ADME
- assay-context: human, Caco-2 monolayer, pH 7.4
Assign Papp A→B at 2 h, 2 µM to each entry below.
Give bare numbers, in ×10⁻⁶ cm/s.

{"molecule": "CN1CCN([C@@H]2CCCN(c3cnc(C(N)=O)c(Nc4ccc(N5CCC(CN6CCN7c8cc(F)c(C9CCC(=O)NC9=O)cc8CC[C@@H]7C6)CC5)cc4)n3)C2)C1=O (stereo partly drawn) [Compound 12]", "measured-quantity": "Papp A→B at 2 h, 2 µM", "unit-abbrev": "×10⁻⁶ cm/s", "assay-result": 1.18}
{"molecule": "CN1CCN([C@@H]2CCCN(c3cnc(C(N)=O)c(Nc4ccc(N5CCC(CN6CCN7c8cc(F)c(N9CCC(=O)NC9=O)cc8CC[C@@H]7C6)CC5)cc4)n3)C2)C1=O [Compound 22]", "measured-quantity": "Papp A→B at 2 h, 2 µM", "unit-abbrev": "×10⁻⁶ cm/s", "assay-result": 2.38}

Next up:
In plain terms, CN1CCN([C@@H]2CCCN(c3cnc(C(N)=O)c(Nc4ccc(N5CCC6(CC5)CC(CN5CCN7c8cc(F)c(C9CCC(=O)NC9=O)cc8CC[C@H]7C5)C6)cc4)n3)C2)C1=O (stereo partly drawn) [Compound 14] has a documented Papp A→B at 2 h, 2 µM of 0.35

###

- system-tested: BTK (Homo sapiens, UniProt Q06187)
- Sequence (Q06187 whole entry): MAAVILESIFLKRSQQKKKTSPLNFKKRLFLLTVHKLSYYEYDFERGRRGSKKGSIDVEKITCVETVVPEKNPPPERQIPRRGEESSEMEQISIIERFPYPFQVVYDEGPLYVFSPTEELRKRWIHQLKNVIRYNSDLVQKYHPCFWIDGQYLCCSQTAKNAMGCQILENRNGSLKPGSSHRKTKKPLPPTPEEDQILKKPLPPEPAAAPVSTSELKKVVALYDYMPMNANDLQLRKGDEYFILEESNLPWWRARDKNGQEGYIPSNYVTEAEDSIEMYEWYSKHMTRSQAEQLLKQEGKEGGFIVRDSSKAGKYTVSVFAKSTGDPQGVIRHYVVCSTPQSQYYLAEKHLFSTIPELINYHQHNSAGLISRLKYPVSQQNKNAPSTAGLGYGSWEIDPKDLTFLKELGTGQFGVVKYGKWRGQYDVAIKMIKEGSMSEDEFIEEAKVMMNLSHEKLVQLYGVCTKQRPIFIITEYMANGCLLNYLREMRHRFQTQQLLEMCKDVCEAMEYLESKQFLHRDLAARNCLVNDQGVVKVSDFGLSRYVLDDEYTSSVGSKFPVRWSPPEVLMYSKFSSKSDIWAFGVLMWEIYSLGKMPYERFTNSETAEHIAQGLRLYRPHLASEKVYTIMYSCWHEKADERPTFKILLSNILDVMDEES
- test-protocol: Detection of BTK degradation in Mino cells
- Format: cell-based
- assay-context: read-out: DC50 values for BTK degradation in Mino cells
Assign DC50 to each entry below.

Use these answered entries as a reference point.
{"compound": "[2H]C([2H])([2H])N1CCN([C@@H]2CCCN(c3cnc(C(N)=O)c(Nc4ccc(N5CCC(CN6CCN7c8cc(F)c(C(=O)N[C@H]9CCC(=O)NC9=O)cc8CC[C@H]7C6)CC5)cc4)n3)C2)C1=O", "assay-result": "< 10 nM"}
{"compound": "CN1CCN([C@@H]2CCCN(c3cnc(C(N)=O)c(Nc4ccc(N5CCC(N6CCN7c8cc(F)c(C(=O)N[C@H]9CCC(=O)NC9=O)cc8CC[C@H]7C6)CC5)cc4)n3)C2)C1=O [Trifluoroacetate of compound 36]", "assay-result": "< 10 nM"}

Next up:
In plain terms, [2H]C([2H])([2H])N1CCN([C@@H]2CCCN(c3cnc(C(N)=O)c(Nc4ccc(N5CCC(CN6CCN7c8cc(F)c(N9CCC(=O)NC9=O)cc8CC[C@@H]7C6)CC5)cc4)n3)C2)C1=O has a documented DC50 of < 10 nM

###

Assign Papp B→A at 2 h, 2 µM to each entry below.
- test-protocol: Caco2 permeability test
- Type: in vitro ADME
- assay-context: human, Caco-2 monolayer, pH 7.4
Numbers only, in ×10⁻⁶ cm/s.

Use these answered entries as a reference point.
{"molecule": "CN1CCN([C@@H]2CCCN(c3cnc(C(N)=O)c(Nc4ccc(N5CCC(CN6CCN7c8cc(F)c(C9CCC(=O)NC9=O)cc8CC[C@@H]7C6)CC5)cc4)n3)C2)C1=O (stereo partly drawn)", "Papp B→A at 2 h, 2 µM, ×10⁻⁶ cm/s": 4.71}
{"molecule": "CN1CCN([C@@H]2CCCN(c3cnc(C(N)=O)c(Nc4ccc(C5CCN(CC6CCN(c7ccc(C(=O)N[C@H]8CCC(=O)NC8=O)nc7)CC6)CC5)cc4)n3)C2)C1=O [Control compound 1, reference compound]", "Papp B→A at 2 h, 2 µM, ×10⁻⁶ cm/s": 5.27}
{"molecule": "CN1CCN([C@@H]2CCCN(c3cnc(C(N)=O)c(Nc4ccc(N5CCC6(CC5)CC(CN5CCN7c8cc(F)c(C9CCC(=O)NC9=O)cc8CC[C@H]7C5)C6)cc4)n3)C2)C1=O (stereo partly drawn)", "Papp B→A at 2 h, 2 µM, ×10⁻⁶ cm/s": 0.867}
{"molecule": "CN1CCN([C@@H]2CCCN(c3cnc(C(N)=O)c(Nc4ccc(N5CCC(CN6CCN7c8cc(F)c(C9CCC(=O)NC9=O)cc8CC[C@H]7C6)CC5)cc4)n3)C2)C1=O (stereo partly drawn)", "Papp B→A at 2 h, 2 µM, ×10⁻⁶ cm/s": 3.74}
{"molecule": "CN1CCN([C@@H]2CCCN(c3nnc(C(N)=O)c(Nc4ccc(N5CCC(CN6CCN7c8cc(F)c(C9CCC(=O)NC9=O)cc8CC[C@@H]7C6)CC5)c(F)c4)n3)C2)C1=O (stereo partly drawn)", "Papp B→A at 2 h, 2 µM, ×10⁻⁶ cm/s": 4.89}

Next up:
In plain terms, CN1CCN([C@@H]2CCCN(c3cnc(C(N)=O)c(Nc4ccc(N5CCC(CN6CCN7c8cc(F)c(N9CCC(=O)NC9=O)cc8CC[C@@H]7C6)CC5)cc4)n3)C2)C1=O has a documented Papp B→A at 2 h, 2 µM of 4.44
